System: HCC1143
protocol.summary: normalised response (% of control), CellTiter-Glo; higher = more viable cells (100 = DMSO, 0 = benzethonium chloride kill control)
measurement.conditions: incubation time: 72 h

{"compound": "O=C(CCBr)N1CCN(C(=O)CCBr)CC1 [Pipobroman] (100 nM)", "normalised response, %": 105}
{"compound": "CCCCC/C=C/C=C1/C(=O)C=C[C@@H]1C/C=C\\CCCC(=O)O [15D-PGJ2] (8 nM)", "normalised response, %": 104}
{"compound": "CC(=O)OC[C@H]1O[C@@H]([S-])[C@H](OC(C)=O)[C@@H](OC(C)=O)[C@@H]1OC(C)=O.CCP(CC)CC.[Au+] [Auranofin] (25 nM)", "normalised response, %": 104}
{"compound": "Cc1c(CN2CCN(C(=O)[C@H](C)O)CC2)sc2c(N3CCOCC3)nc(-c3cnc(N)nc3)nc12 [GDC-0980] (100 nM)", "normalised response, %": 92.9}
